Molecular target: hCA XII (Homo sapiens)
Construct: gene CA12; recombinant
Sequence (O43570 25-354 limits assumed): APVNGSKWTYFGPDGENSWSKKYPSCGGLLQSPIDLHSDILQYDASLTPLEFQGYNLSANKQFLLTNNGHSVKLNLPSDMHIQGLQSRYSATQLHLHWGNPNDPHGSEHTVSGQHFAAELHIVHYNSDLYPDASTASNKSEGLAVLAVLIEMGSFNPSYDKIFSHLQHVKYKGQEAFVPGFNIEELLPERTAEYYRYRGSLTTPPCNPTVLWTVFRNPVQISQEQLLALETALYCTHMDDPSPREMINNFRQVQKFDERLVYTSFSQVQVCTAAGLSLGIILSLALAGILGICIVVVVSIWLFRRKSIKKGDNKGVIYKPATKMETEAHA
Experiment: stopped-flow CO2 hydrase assay
Type: biochemical
Settings: read-out: KI (μM)^a^,b / hCA XII
Source text: stopped-flow CO2 hydrase assay on hCA XII
Assay metric: log10 Ki (log10 of the value in µM)
Values below are the log10 of the recorded Ki, with µM as the unit.

Compound string	log10 Ki
O=C1NC(=O)C(=Cc2cn(-c3ccccc3)nc2-c2cc3ccccc3c(=O)o2)C(=O)N1	1.62
CC(=NNc1ccccc1)c1cc2ccccc2c(=O)o1	0.28
CC(=NNc1ccc(Cl)cc1)c1cc2ccccc2c(=O)o1	0.66
O=C1NC(=S)NC(=O)C1=Cc1cn(-c2ccccc2)nc1-c1cc2ccccc2c(=O)o1	1.67
N#Cc1ccc(-n2cc(C=O)c(-c3cc4ccccc4c(=O)o3)n2)cc1	0.92

Query :: Query log10 Ki on hCA XII (Homo sapiens) for Cc1c(-c2nn(-c3ccccc3)cc2C=C2C(=O)NC(=S)NC2=O)oc(=O)c2ccccc12
Result :: 1.80

Query :: Query log10 Ki on hCA XII (Homo sapiens) for Cc1c(-c2nn(-c3ccc(Cl)cc3)cc2C=O)oc(=O)c2ccccc12
Result :: 1.13

Query :: Query log10 Ki on hCA XII (Homo sapiens) for Cc1c(-c2nn(-c3ccccc3)cc2C=O)oc(=O)c2ccccc12
Result :: 0.91

Query :: Query log10 Ki on hCA XII (Homo sapiens) for CC(=NNc1ccccc1)c1oc(=O)c2ccccc2c1C
Result :: 0.36

Query :: Query log10 Ki on hCA XII (Homo sapiens) for O=Cc1cn(-c2ccccc2)nc1-c1cc2ccccc2c(=O)o1
Result :: 0.81

====

Biological target: hCA XII (Homo sapiens)
Construct: gene CA12; recombinant
Experiment: stopped-flow CO2 hydrase assay
Assay type: biochemical
Details: read-out: KI (μM)^a^,b / hCA XII
Assay metric: log10 Ki (log10 of the value in µM)
Values below are the log10 of the recorded Ki, with µM as the unit.

Examples with their reported log10 Ki follow.
Compound string	System under test	log10 Ki
CC(=NNc1ccc(C#N)cc1)c1cc2ccccc2c(=O)o1	hCA XII (Homo sapiens)	0.08
Cc1c(-c2nn(-c3ccccc3)cc2C=C2C(=O)NC(=O)NC2=O)oc(=O)c2ccccc12	hCA XII (Homo sapiens)	1.82
O=Cc1cn(-c2ccc(Cl)cc2)nc1-c1cc2ccccc2c(=O)o1	hCA XII (Homo sapiens)	1.06
N#Cc1ccc(-n2cc(C=C3C(=O)NC(=S)NC3=O)c(-c3cc4ccccc4c(=O)o3)n2)cc1	hCA XII (Homo sapiens)	1.73
N#Cc1ccc(-n2cc(C=C3C(=O)NC(=O)NC3=O)c(-c3cc4ccccc4c(=O)o3)n2)cc1	hCA XII (Homo sapiens)	1.56

Kindly review the next compound as well.
Query :: Looking for the measured log10 Ki of CC(=NNc1ccc(Cl)cc1)c1oc(=O)c2ccccc2c1C , can you help?
Result :: 0.76

====

Each entry below carries its recorded Ki.
Target: hCA IX (Homo sapiens, UniProt Q16790)
Construct: gene CA9; recombinant
Assay: stopped-flow CO2 hydrase assay
Assay type: biochemical
Conditions: read-out: KI (μM)^a^,b / hCA IX
Your answer is read as µM, so omit the unit and give the number.

Compound string	System under test	Ki / µM
O=Cc1cn(-c2ccc(Cl)cc2)nc1-c1cc2ccccc2c(=O)o1	hCA IX (Homo sapiens, UniProt Q16790)	6.2

Query :: Looking for the measured Ki of N#Cc1ccc(-n2cc(C=O)c(-c3cc4ccccc4c(=O)o3)n2)cc1 , can you help?
Result :: 8

Query :: Looking for the measured Ki of CC(=NNc1ccc(Cl)cc1)c1oc(=O)c2ccccc2c1C , can you help?
Result :: 2.7

Query :: Looking for the measured Ki of CC(=NNc1ccc(Cl)cc1)c1cc2ccccc2c(=O)o1 , can you help?
Result :: 3.5

Query :: Looking for the measured Ki of Cc1c(-c2nn(-c3ccccc3)cc2C=C2C(=O)NC(=S)NC2=O)oc(=O)c2ccccc12 , can you help?
Result :: 72.3

Query :: Looking for the measured Ki of CC(=NNc1ccccc1)c1cc2ccccc2c(=O)o1 , can you help?
Result :: 4.3

Every entry's value here was drawn from paper PMC8865125.
